Listed next: entries and their corresponding pIC50.
- target desc: hFAP (Homo sapiens)
- Construct: made in house; host or cells: CHO cells, transient gene expression, purified from supernatant
- Sequence (Q12884 with tags, fused parts or gaps): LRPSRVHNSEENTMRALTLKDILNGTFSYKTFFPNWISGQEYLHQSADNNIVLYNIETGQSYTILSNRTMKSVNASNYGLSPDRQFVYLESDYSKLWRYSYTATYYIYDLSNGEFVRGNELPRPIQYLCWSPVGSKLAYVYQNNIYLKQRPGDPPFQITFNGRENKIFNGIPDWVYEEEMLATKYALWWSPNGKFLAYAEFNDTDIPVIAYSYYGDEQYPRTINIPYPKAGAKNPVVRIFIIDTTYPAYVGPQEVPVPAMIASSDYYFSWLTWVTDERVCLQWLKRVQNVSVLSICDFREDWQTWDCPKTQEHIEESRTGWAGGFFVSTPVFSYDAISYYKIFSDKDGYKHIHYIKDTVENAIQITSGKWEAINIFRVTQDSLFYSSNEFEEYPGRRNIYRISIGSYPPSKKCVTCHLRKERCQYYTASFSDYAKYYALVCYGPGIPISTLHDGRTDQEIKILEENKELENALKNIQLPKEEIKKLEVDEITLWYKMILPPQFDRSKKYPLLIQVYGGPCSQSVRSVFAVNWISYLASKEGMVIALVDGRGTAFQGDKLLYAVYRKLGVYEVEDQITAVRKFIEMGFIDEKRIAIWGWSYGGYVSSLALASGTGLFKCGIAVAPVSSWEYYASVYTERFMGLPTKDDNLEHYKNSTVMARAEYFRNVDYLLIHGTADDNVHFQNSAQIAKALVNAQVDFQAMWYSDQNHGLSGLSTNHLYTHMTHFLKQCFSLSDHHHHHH
- procedure summary: In vitro human FAP enzyme IC50 assay (Z-Gly-Pro-AMC substrate)
- Format: biochemical
- settings: FIG. 5; 30 min preincubation at 37° C., 20 nM human FAP, 20 μM substrate; read-out: IC50 hFAP inhibition
By convention, pIC50 is the negative base-10 log of a molar concentration.

Example entries begin here.
{"compound": "N#C[C@@H]1CC(F)(F)CN1C(=O)CNC(=O)c1ccnc2ccc(OCCCN3CCNCC3)cc12 [Conjugate H6]", "observed result": 7.61}
{"compound": "N#C[C@@H]1CC(F)(F)CN1C(=O)CNC(=O)c1ccnc2c(N)cccc12 [ESV6 ligand]", "observed result": 7.69}
{"compound": "N#C[C@@H]1CC(F)(F)CN1C(=O)CNC(=O)c1ccnc2ccc(OCCCN3CCNCC3)cc12 [Haberkorn ligand]", "observed result": 7.61}

Challenge: Fill in: pIC50 of N#C[C@@H]1CC(F)(F)CN1C(=O)CNC(=O)c1ccnc2c(N)cccc12 [Conjugate P3] is ___
Response given: 7.69
